System: LEGO organoid PTCC (PTEN-/-; TP53-/-; CDKN2A-/-; CDKN2B-/-)
Procedure Summary: bioluminescence (viable cell) signal fold change after vs before treatment, normalised to DMSO (ratio); higher = more tumour cell growth / less inhibition
Measurement Parameters: 10 µM; treatment time 6 days
Response key: Met means bioluminescence >= 1; Not met means bioluminescence < 1.

Here are 5 compounds together with their reported answers.
Could you verify whether the entry CCCCCCCCCCC[C@@H](C[C@@H]1OC(=O)[C@H]1CCCCCC)OC(=O)[C@H](CC(C)C)NC=O shows bioluminescence of no less than 1? Not met

Could you verify whether the entry Cl.N=C(N)NC(=O)Cc1c(Cl)cccc1Cl [Guanfacine hydrochloride] shows bioluminescence of no less than 1? Met

Could you verify whether the entry COc1cc2c(cc1OC)C(=O)C(CC1CCN(Cc3ccccc3)CC1)C2 (stereo not given) shows bioluminescence of no less than 1? Not met

Could you verify whether the entry CCOC(=O)OC(C)OC(=O)[C@@H]1N2C(=O)[C@@H](NC(=O)[C@H](N)c3ccccc3)[C@H]2SC1(C)C.Cl (stereo not given in full) [Bacampicillin hydrochloride] shows bioluminescence of no less than 1? Met

Could you verify whether the entry CCCc1nc(C)c2c(=O)[nH]c(-c3cc(S(=O)(=O)N4CCN(CC)CC4)ccc3OCC)nn12 shows bioluminescence of no less than 1? Met

More entries:
Could you verify whether the entry C[C@H]1C[C@@H]2[C@H]([C@@H](O)C[C@@]3(C)[C@H]2CC[C@]3(O)C(=O)CO)[C@@]2(C)C=CC(=O)C=C12 shows bioluminescence of no less than 1? Not met

Could you verify whether the entry CC[C@]1(O)C[C@H]2C[N@](CCc3c([nH]c4ccccc34)[C@@](C(=O)OC)(c3cc4c(cc3OC)N(C=O)[C@H]3[C@@](O)(C(=O)OC)[C@H](OC(C)=O)[C@]5(CC)C=CCN6CC[C@]43[C@@H]65)C2)C1.O=S(=O)(O)O [Vincristine sulfate] shows bioluminescence of no less than 1? Met

Could you verify whether the entry N[C@H](C(=O)O)[C@H](O)c1ccc(O)c(O)c1 shows bioluminescence of no less than 1? Met

Could you verify whether the entry CCCCCCCCCC(=O)OCCN1CCN(CCCN2c3ccccc3Sc3ccc(C(F)(F)F)cc32)CC1 [Fluphenazine decanoate] shows bioluminescence of no less than 1? Met

Could you verify whether the entry COc1ccccc1Oc1c(NS(=O)(=O)c2ccc(C(C)(C)C)cc2)nc(-c2ncccn2)nc1OCCO shows bioluminescence of no less than 1? Met

Could you verify whether the entry Nc1nc2c(ncn2COCCO)c(=O)[nH]1 shows bioluminescence of no less than 1? Met

Could you verify whether the entry CNCC[C@@H](Oc1ccccc1C)c1ccccc1.Cl [Atomoxetine hydrochloride] shows bioluminescence of no less than 1? Met

Could you verify whether the entry Cc1ccnc2c1NC(=O)c1cccnc1N2C1CC1 shows bioluminescence of no less than 1? Not met

Could you verify whether the entry Nc1nc(NC2CC2)c2ncn([C@H]3C=C[C@@H](CO)C3)c2n1 shows bioluminescence of no less than 1? Met

Could you verify whether the entry COc1cc2ncnc(Nc3ccc(F)c(Cl)c3)c2cc1OCCCN1CCOCC1 shows bioluminescence of no less than 1? Met
